- studySystem: recombinant human OX40 (Acro Biosystems, cat. no. OXO-H5224) (human) (UniProt P43489)
- Sequence (P43489 29-216 limits assumed): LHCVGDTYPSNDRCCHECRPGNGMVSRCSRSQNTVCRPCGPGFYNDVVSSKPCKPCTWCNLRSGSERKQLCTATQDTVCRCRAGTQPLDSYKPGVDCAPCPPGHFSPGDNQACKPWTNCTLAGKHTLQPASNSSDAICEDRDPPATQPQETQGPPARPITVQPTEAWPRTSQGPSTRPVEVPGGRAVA
- assayName: BLI cross-block; competitor (immobilized 1st Ab): IgG1-CD134-012
experimentalReadout: corrected association response (nm)
Provide the reading as a plain figure in nm.

Example entries begin here.
binder | unitAbbrev | corrected association response
IgG1-CD134-RG7888 (antibody, INN chains, looked up, V domains shown, IgG1) VH: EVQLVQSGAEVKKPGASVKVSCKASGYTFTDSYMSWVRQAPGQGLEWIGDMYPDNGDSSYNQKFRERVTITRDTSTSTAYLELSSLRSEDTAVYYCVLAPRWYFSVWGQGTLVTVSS VL: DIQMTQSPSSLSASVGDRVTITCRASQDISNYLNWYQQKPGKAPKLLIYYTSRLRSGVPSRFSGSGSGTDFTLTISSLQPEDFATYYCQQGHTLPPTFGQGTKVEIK | nm | 0.54
IgG1-CD134-MEDI0562 (antibody, INN chains, looked up, V domains shown, IgG1) VH: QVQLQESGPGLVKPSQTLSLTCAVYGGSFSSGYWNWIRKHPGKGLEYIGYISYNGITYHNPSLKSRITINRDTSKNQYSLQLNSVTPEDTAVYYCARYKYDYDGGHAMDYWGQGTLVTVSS VL: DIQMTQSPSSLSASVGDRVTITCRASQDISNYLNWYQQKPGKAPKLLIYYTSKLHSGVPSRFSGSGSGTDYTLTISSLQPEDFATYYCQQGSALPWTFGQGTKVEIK | nm | 0.82
IgG1-CD134-ABBV368 (antibody, INN chains, looked up, V domains shown, IgG1) VH: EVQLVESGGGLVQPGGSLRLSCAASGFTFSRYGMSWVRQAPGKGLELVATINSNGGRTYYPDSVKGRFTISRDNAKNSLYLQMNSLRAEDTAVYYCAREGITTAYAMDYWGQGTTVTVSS VL: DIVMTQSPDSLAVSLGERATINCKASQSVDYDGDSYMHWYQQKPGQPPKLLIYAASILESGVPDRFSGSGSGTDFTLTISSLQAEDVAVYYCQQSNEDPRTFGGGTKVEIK | nm | 0.87

Let's switch to this binder now.
Query IgG1-CD134-GBR830 (antibody, INN chains, looked up, V domains shown, IgG1) VH: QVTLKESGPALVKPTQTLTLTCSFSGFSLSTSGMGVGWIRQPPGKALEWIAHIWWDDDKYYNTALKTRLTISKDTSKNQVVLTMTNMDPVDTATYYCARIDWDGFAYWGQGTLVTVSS VL: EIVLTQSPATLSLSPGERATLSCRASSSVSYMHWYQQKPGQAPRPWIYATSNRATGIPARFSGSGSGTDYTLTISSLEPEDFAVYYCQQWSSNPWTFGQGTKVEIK yields corrected association response of 0.84
